B1: PKD2L1 (parent)
chain: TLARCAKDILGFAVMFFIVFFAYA

variants of: B1; assay: protein stability index of a GFP-peptide fusion (GPS, HEK-293T) (PSI 1-6); higher = more stable; details: c terminus: a fixed tail appended;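 further: lentivirally expressed fusions sorted by FACS into six bins by GFP to DsRed ratio, PSI derived from sequencing read proportions per bin multiplied by bin number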
We use 3 as the dividing line for protein stability index: on or above the line is Met, below is Not met.

The following variants have reported results that may help.
F21N	Not met
F12T	Not met
A22C	Met
D8S	Not met
A3E	Met

Problem: API: above_or_equal(metric=protein stability index, cutoff=3) for item F20C
Solution: Not met

Problem: Hi team, for A24F , is the recorded protein stability index at or above 3?
Solution: Not met

Problem: Tell me whether protein stability index is at least 3 here: T1F
Solution: Met
